Hello, the source for this data is PubChem BioAssay (NCI), in case you need it.

Experiment: NCI Yeast Anticancer Drug Screen. Data for the bub3 strain (AID 167)
Conditions: S. cerevisiae bub3 mutant strain, at 50.0 µM, stronger effect = higher value
The panel holds about 79,000 compounds, 15% with a hit somewhere; the sample as a whole holds those more often.
observable: growth inhibition (%)
Numbers only, in %.

Worked set:
CCC(=O)Oc1ccc[nH]c1=O
9.95
O=C(NC(Cc1cccnc1)C(=O)O)c1ccccc1 (configuration not stated)
12.9
CC(=O)N=C1N(/C=C2\C(=O)Oc3ccccc3C2=O)C(=O)/C(=C/c2ccccc2Cl)N1C
-16.9
CC(C)C(O)(C(=O)OCC1=CC[N+]2(C)CCC(O)C12)C(C)O (configuration not stated)
-3.2

Would you mind giving growth inhibition for every molecule in the list below?
1. CC1CC(=O)C(CCC#N)=C(O)C1 (configuration not stated)
2. Clc1c(-c2ccccc2)oc2nc3ccccc3nc12
3. CCc1ccc(NC(=O)c2ccc(C(=O)Nc3ccc(CC)cc3)cc2)cc1
4. CC(=O)NNc1nc(C)c(C(=O)NNC(=O)C(=O)Nc2cccc(C(C)=O)c2)s1
5. O=C(O)CCc1c[nH]c2ccccc12

Reply text:
1. 5.55
2. -1.55
3. 13.4
4. 0.85
5. -7.95

Would you mind giving growth inhibition for every molecule in the list below?
1. O=C(CI)NCC(O)CNC(=O)CI
2. CN(C)C(=O)Nc1cccc2nsnc12
3. CC1(C)CN(Cc2ccccc2)C(C)(C)CN1

Reply text:
1: 9.2; 2: -5.95; 3: -10.5
